biological target: Bcl-2-like protein 10 (Homo sapiens); assay: TR3 peptide-Bcl-B binding displacers, biochemical primary FP assay, phenotype converters (AID 1240); conditions: GST-Bcl-B / FITC-TR3 peptide fluorescence polarization; stronger effect = higher value; compound at 3.75 mg/L;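 also: 0% = Bcl-B with tracer peptide and DMSO and 100% = tracer peptide lacking Bcl-B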
The campaign covered roughly 50,000 compounds. About 800 (1.6%) showed an effect of 50% or more. The full list was thinned out, with strong results kept by preference.
READOUT_KIND: displacement (%)
Give just the number in %; leave the unit off.

| COMPOUND | TARGET_OF_ASSAY | ENDPOINT_VALUE |
| --- | --- | --- |
| O=C(CN(c1ccc(Br)cc1)S(=O)(=O)c1ccccc1)NC1CC2CCC1C2 (stereo not given) | Bcl-2-like protein 10 (Homo sapiens) | -0.2 |

Below: the item to evaluate.
INPUT: // displacement lookup, key: `COc1ccc(-c2cc(CC(=O)c3ccccc3)cc(-c3ccc(OC)cc3)n2)cc1`
OUTPUT: 7.7
